study_conditions: in acetonitrile, 283.15 K
observable: solubility (mole fraction)

Quick one: solubility (mole fraction) for CC1=CC(=O)c2ccccc2C1=O ?
0.0197

----------
study_conditions: in 1,2-dichloroethane, 303.15 K
observable: solubility (mole fraction)
Enter the number alone.

Need solubility (mole fraction) of CC1=CC(=O)c2ccccc2C1=O , thanks.
0.187

----------
study_conditions: in acetonitrile, 308.15 K
observable: solubility (mole fraction)
Answer using only a numeral; do not append any unit.

Please report the recorded solubility (mole fraction) for CC1=CC(=O)c2ccccc2C1=O .
0.0609

----------
study_conditions: in n-propanol, 308.15 K
observable: solubility (mole fraction)

Reported solubility (mole fraction) for CC1=CC(=O)c2ccccc2C1=O : what is it?
0.0122

----------
study_conditions: in acetone, 283.15 K
observable: solubility (mole fraction)
The answer should be written as a number, with no unit following it.

For CC1=CC(=O)c2ccccc2C1=O , what is its reported solubility (mole fraction)?
0.0381

----------
study_conditions: in methyl acetate, 283.15 K
observable: solubility (mole fraction)
API doc: respond with a numeric literal and nothing else, no unit.

So what does the record say about solubility (mole fraction) for CC1=CC(=O)c2ccccc2C1=O ?
0.0481

----------
study_conditions: in 1,2-dichloroethane, 278.15 K
observable: solubility (mole fraction)
Form: value (number only, do not type unit).

Can you look up the measured solubility (mole fraction) of CC1=CC(=O)c2ccccc2C1=O for me?
0.0879

----------
study_conditions: in n-butanol, 288.15 K
observable: solubility (mole fraction)
Lab note: jot the number down without any unit.

Recorded solubility (mole fraction) of CC1=CC(=O)c2ccccc2C1=O , please.
0.0057

----------
study_conditions: in acetonitrile, 303.15 K
observable: solubility (mole fraction)
API note: the answer field is a bare number with no unit suffix.

Can you look up the measured solubility (mole fraction) of CC1=CC(=O)c2ccccc2C1=O for me?
0.0491

----------
study_conditions: in dichloromethane, 283.15 K
observable: solubility (mole fraction)
Lab note: jot the number down without any unit.

Can you share its solubility (mole fraction)? I mean this compound: CC1=CC(=O)c2ccccc2C1=O
0.128

----------
study_conditions: in methanol, 303.15 K
observable: solubility (mole fraction)
# print the numeric value only

Consider the compound CC1=CC(=O)c2ccccc2C1=O and give its measured solubility (mole fraction).
0.00709

----------
study_conditions: in dichloromethane, 313.15 K
observable: solubility (mole fraction)
Respond using a number only.

Given the entry CC1=CC(=O)c2ccccc2C1=O , report its measured solubility (mole fraction).
0.277

----------
study_conditions: in n-propanol, 283.15 K
observable: solubility (mole fraction)

Entry under review: CC1=CC(=O)c2ccccc2C1=O . Reported solubility (mole fraction)?
0.00426

----------
study_conditions: in methanol, 293.15 K
observable: solubility (mole fraction)
Returns: the value as a bare number; no unit string appended.

Item under review: CC1=CC(=O)c2ccccc2C1=O . Reported solubility (mole fraction)?
0.00484

----------
study_conditions: in acetone, 293.15 K
observable: solubility (mole fraction)

Quick one: solubility (mole fraction) for CC1=CC(=O)c2ccccc2C1=O ?
0.0534

----------
study_conditions: in acetonitrile, 293.15 K
observable: solubility (mole fraction)
Keep the answer to the number alone.

Which solubility (mole fraction) value is on record for CC1=CC(=O)c2ccccc2C1=O ?
0.0326
